B1: LINE1-full (parent)
chain: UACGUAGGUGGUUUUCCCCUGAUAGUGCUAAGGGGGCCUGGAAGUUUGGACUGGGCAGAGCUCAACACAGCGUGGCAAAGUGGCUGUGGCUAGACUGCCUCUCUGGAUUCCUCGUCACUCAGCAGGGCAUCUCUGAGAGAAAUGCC

# Variants of: B1
# assay_protocol: self-cleavage, relative activity (ratio to wild type); higher = more cleavage; in vitro, sequencing; the parent is a self-cleaving ribozyme
Label scheme for self-cleavage: lower than 0.7 is 0 (no), 0.7 and above is 1 (yes).

Please review the entries below; each comes with its answer.
| mutation_spec | qualitative_label |
| --- | --- |
| U5C A67G | 0 (no) |
| A2G U96G | 0 (no) |
| U20G U52A | 1 (yes) |
| A65G U91C | 0 (no) |
| A94G G127U | 0 (no) |
| A59G U115A | 0 (no) |

Query :: Could you please find out whether A92C U109C has self-cleavage that meets 0.7 or exceeds it?
Result :: 0 (no)

Query :: In plain terms: is recorded self-cleavage at least 0.7 for A42G A67G ?
Result :: 1 (yes)

Query :: Can U12C U109C be said to have self-cleavage at or above 0.7?
Result :: 1 (yes)

Query :: Could you tell me if the measured self-cleavage of A2G U45A reaches 0.7 or more?
Result :: 0 (no)

Provenance of the data: the RNAGym collection of RNA variant scans (doi:10.7554/elife.90254)
